biological target: glutaminyl cyclase (QC) (Homo sapiens)
Sequence (Q16769 29-361): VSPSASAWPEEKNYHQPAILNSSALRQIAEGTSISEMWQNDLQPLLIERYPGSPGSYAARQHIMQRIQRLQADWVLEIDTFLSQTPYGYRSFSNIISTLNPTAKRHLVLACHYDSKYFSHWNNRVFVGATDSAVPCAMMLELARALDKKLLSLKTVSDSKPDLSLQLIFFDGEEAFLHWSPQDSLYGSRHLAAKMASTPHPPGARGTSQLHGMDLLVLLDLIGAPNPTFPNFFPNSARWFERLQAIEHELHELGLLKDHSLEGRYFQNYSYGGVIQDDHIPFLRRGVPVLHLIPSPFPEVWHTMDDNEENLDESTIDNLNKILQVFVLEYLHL
parameter.measured: pKi
In textbook form, pKi equals minus log to base ten of the concentration in mol/L.

1) Cc1cc(NCCCn2ccnc2)nc(-c2ccccc2)n1 :: 4.74

Exam item: Quick one: pKi of COc1ccc(-c2cc(NCCCn3ccnc3)nc(C)n2)cc1 ?
Marked response: 5.65

Exam item: Quick one: pKi of Cc1nc(NCCCn2ccnc2)cc(-c2cc(C(F)(F)F)cc(C(F)(F)F)c2)n1 ?
Marked response: 5.33

Exam item: Quick one: pKi of COc1ccccc1-c1cc(NCCCn2cncc2C)nc(-c2ccncc2)n1 ?
Marked response: 6.55

Exam item: Quick one: pKi of COc1cccc(-c2cc(NCCCn3ccnc3)nc(-c3ccccc3)n2)c1 ?
Marked response: 5.43

Exam item: Quick one: pKi of COc1cc(-c2cc(NCCCn3ccnc3)nc(-c3ccccc3)n2)cc(OC)c1OC ?
Marked response: 5.94

Exam item: Quick one: pKi of c1ccc(C2CC2c2cc(NCCCn3ccnc3)nc(-c3ccncc3)n2)cc1 (stereo not shown) ?
Marked response: 5.51

Exam item: Quick one: pKi of Cc1nc(NCCCn2ccnc2)cc(-c2ccc3ncccc3c2)n1 ?
Marked response: 5.45

Exam item: Quick one: pKi of c1ccc(-c2cc(NCCCn3ccnc3)nc(-c3ccccc3)n2)cc1 ?
Marked response: 5.41

Exam item: Quick one: pKi of Cc1cc(NCCCn2ccnc2)nc(C)n1 ?
Marked response: 5.03

====

target: glutaminyl cyclase (QC) (Homo sapiens)
parameter.measured: IC50
Please state the value followed by its unit.

Exam item: Look up IC50 with glutaminyl cyclase (QC) (Homo sapiens) for this molecule: c1ccc2c(c1)CC(c1cc(NCCCn3ccnc3)nc(-c3ccncc3)n1)C2
Marked response: 26.8 µM

Exam item: Look up IC50 with glutaminyl cyclase (QC) (Homo sapiens) for this molecule: Cc1nc(NCCCn2ccnc2)cc(-c2ccccc2)n1
Marked response: 28.1 µM

Exam item: Look up IC50 with glutaminyl cyclase (QC) (Homo sapiens) for this molecule: COc1ccccc1-c1cc(NCCCn2ccnc2)nc(C)n1
Marked response: 19.3 µM

Exam item: Look up IC50 with glutaminyl cyclase (QC) (Homo sapiens) for this molecule: Cc1nc(NCCCn2ccnc2)cc(C2Cc3ccccc3C2)n1
Marked response: 48.3 µM

Exam item: Look up IC50 with glutaminyl cyclase (QC) (Homo sapiens) for this molecule: Cc1nc(NCCCn2ccnc2)cc(-c2cc(C(F)(F)F)cc(C(F)(F)F)c2)n1
Marked response: 14.7 µM

====

Record type: pIC50 measurement. Applies to: glutaminyl cyclase (QC) (Homo sapiens, UniProt Q16769)
In textbook form, pIC50 equals minus log to base ten of the concentration in mol/L.

1. Cc1ccc(-c2cc(NCCCn3ccnc3)nc(C)n2)cc1 :: 4.88
2. Cc1cc(NCCCn2ccnc2)nc(C)n1 :: 4.52
3. COc1ccccc1-c1cc(NCCCn2cncc2C)nc(-c2ccncc2)n1 :: 5.96
4. O=[N+]([O-])c1ccc(-c2cc(NCCCn3ccnc3)nc(-c3ccccc3)n2)cc1 :: 4.91
5. c1cc(-c2nc(NCCCn3ccnc3)cc(-c3ccoc3)n2)ccn1 :: 4.56

Exam item: Quick one: pIC50 of COc1cccc(-c2cc(NCCCn3ccnc3)nc(C)n2)c1 ?
Marked response: 4.68

Exam item: Quick one: pIC50 of COc1cc(-c2cc(NCCCn3ccnc3)nc(C)n2)cc(OC)c1OC ?
Marked response: 5.19

Exam item: Quick one: pIC50 of c1ccc(-c2nc(Nc3ccc4nc[nH]c4c3)cc(-c3ccc4ncccc4c3)n2)cc1 ?
Marked response: 4.00

Exam item: Quick one: pIC50 of O=[N+]([O-])c1ccc(-c2cc(NCCCn3ccnc3)nc(-c3ccncc3)n2)cc1 ?
Marked response: 4.77

Exam item: Quick one: pIC50 of c1ccc(-c2cc(NCCCn3ccnc3)nc(-c3ccccc3)n2)cc1 ?
Marked response: 4.30
